meta.source: ChEMBL document CHEMBL1649134

Test system: Klebsiella aerogenes
Test Protocol: Antimicrobial activity against multidrug resistant Enterobacter aerogenes isolate 18 by broth dilution method in presence of 26.3 mg/L efflux pump inhibitor phenylalanine-arginine-beta-naphthylamide
Type: functional

Smiles String | MIC / µg/mL
CCn1cc(C(=O)O)c(=O)c2cc(F)c(N3CCNCC3)cc21 | 128
O=C(N[C@H](CO)[C@H](O)c1ccc([N+](=O)[O-])cc1)C(Cl)Cl | 4
CN(C)[C@@H]1C(O)=C(C(N)=O)C(=O)[C@@]2(O)C(O)=C3C(=O)c4c(O)cccc4[C@@](C)(O)[C@H]3C[C@@H]12 | 4
C[C@@H]1CN(c2c(F)c(N)c3c(=O)c(C(=O)O)cn(C4CC4)c3c2F)C[C@H](C)N1 | 16

* * *

Test system: Klebsiella pneumoniae
Test Protocol: Antimicrobial activity against multidrug resistant Klebsiella pneumoniae isolate 9 by broth dilution method
Type: functional
# MIC per record follows
Metric: MIC (µg/mL)

Compound | Target | Unit Spec | Limit Qualifier | Reading
CN(C)[C@@H]1C(O)=C(C(N)=O)C(=O)[C@@]2(O)C(O)=C3C(=O)c4c(O)cccc4[C@@](C)(O)[C@H]3C[C@@H]12 [TETRACYCLINE] | Klebsiella pneumoniae | µg/mL | = | 8
CO/N=C(\C(=O)N[C@@H]1C(=O)N2C(C(=O)[O-])=C(C[N+]3(C)CCCC3)CS[C@H]12)c1csc(N)n1 | Klebsiella pneumoniae | µg/mL | = | 64
C[C@@H]1CN(c2c(F)c(N)c3c(=O)c(C(=O)O)cn(C4CC4)c3c2F)C[C@H](C)N1 [SPARFLOXACIN] | Klebsiella pneumoniae | µg/mL | ≤ | 0.06
CCn1cc(C(=O)O)c(=O)c2cc(F)c(N3CCNCC3)cc21 [NORFLOXACIN] | Klebsiella pneumoniae | µg/mL | = | 1
O=C(N[C@H](CO)[C@H](O)c1ccc([N+](=O)[O-])cc1)C(Cl)Cl [CHLORAMPHENICOL] | Klebsiella pneumoniae | µg/mL | = | 64
C[C@@H](O)[C@H]1C(=O)N2C(C(=O)O)=C(SCCNC=N)C[C@H]12 [IMIPENEM ANHYDROUS] | Klebsiella pneumoniae | µg/mL | = | 0.5
CO[C@@]1(NC(=O)Cc2cccs2)C(=O)N2C(C(=O)O)=C(COC(N)=O)CS[C@@H]21 [CEFOXITIN] | Klebsiella pneumoniae | µg/mL | = | 16
CC(C)(O/N=C(\C(=O)N[C@@H]1C(=O)N2C(C(=O)[O-])=C(C[n+]3ccccc3)CS[C@H]12)c1csc(N)n1)C(=O)O [CEFTAZIDIME] | Klebsiella pneumoniae | µg/mL | > | 2050

* * *

Tested on: Klebsiella pneumoniae
Test Protocol: Antimicrobial activity against multidrug resistant Klebsiella pneumoniae isolate 5 by broth dilution method
Format: functional
Lab note: anything with MIC below 20 µg/mL is marked Met; values at 20 µg/mL or higher are marked Not met.

Compound | Label Value
C[C@@H]1CN(c2c(F)c(N)c3c(=O)c(C(=O)O)cn(C4CC4)c3c2F)C[C@H](C)N1 [SPARFLOXACIN] | Met
CN(C)[C@@H]1C(O)=C(C(N)=O)C(=O)[C@@]2(O)C(O)=C3C(=O)c4c(O)cccc4[C@@](C)(O)[C@H]3C[C@@H]12 [TETRACYCLINE] | Met
C[C@@H](O)[C@H]1C(=O)N2C(C(=O)O)=C(SCCNC=N)C[C@H]12 [IMIPENEM ANHYDROUS] | Met
CO/N=C(\C(=O)N[C@@H]1C(=O)N2C(C(=O)[O-])=C(C[N+]3(C)CCCC3)CS[C@H]12)c1csc(N)n1 | Not met
O=C(N[C@H](CO)[C@H](O)c1ccc([N+](=O)[O-])cc1)C(Cl)Cl [CHLORAMPHENICOL] | Not met
CCn1cc(C(=O)O)c(=O)c2cc(F)c(N3CCNCC3)cc21 [NORFLOXACIN] | Met
CO[C@@]1(NC(=O)Cc2cccs2)C(=O)N2C(C(=O)O)=C(COC(N)=O)CS[C@@H]21 [CEFOXITIN] | Met
CC(C)(O/N=C(\C(=O)N[C@@H]1C(=O)N2C(C(=O)[O-])=C(C[n+]3ccccc3)CS[C@H]12)c1csc(N)n1)C(=O)O [CEFTAZIDIME] | Not met
